Measured inhibition at 20 μM by item
Biological target: P-gp (Homo sapiens, UniProt P08183)
Construct: endogenous in cells; host or cells: HCT-15 human colon adenocarcinoma cells
Sequence (P08183 whole entry): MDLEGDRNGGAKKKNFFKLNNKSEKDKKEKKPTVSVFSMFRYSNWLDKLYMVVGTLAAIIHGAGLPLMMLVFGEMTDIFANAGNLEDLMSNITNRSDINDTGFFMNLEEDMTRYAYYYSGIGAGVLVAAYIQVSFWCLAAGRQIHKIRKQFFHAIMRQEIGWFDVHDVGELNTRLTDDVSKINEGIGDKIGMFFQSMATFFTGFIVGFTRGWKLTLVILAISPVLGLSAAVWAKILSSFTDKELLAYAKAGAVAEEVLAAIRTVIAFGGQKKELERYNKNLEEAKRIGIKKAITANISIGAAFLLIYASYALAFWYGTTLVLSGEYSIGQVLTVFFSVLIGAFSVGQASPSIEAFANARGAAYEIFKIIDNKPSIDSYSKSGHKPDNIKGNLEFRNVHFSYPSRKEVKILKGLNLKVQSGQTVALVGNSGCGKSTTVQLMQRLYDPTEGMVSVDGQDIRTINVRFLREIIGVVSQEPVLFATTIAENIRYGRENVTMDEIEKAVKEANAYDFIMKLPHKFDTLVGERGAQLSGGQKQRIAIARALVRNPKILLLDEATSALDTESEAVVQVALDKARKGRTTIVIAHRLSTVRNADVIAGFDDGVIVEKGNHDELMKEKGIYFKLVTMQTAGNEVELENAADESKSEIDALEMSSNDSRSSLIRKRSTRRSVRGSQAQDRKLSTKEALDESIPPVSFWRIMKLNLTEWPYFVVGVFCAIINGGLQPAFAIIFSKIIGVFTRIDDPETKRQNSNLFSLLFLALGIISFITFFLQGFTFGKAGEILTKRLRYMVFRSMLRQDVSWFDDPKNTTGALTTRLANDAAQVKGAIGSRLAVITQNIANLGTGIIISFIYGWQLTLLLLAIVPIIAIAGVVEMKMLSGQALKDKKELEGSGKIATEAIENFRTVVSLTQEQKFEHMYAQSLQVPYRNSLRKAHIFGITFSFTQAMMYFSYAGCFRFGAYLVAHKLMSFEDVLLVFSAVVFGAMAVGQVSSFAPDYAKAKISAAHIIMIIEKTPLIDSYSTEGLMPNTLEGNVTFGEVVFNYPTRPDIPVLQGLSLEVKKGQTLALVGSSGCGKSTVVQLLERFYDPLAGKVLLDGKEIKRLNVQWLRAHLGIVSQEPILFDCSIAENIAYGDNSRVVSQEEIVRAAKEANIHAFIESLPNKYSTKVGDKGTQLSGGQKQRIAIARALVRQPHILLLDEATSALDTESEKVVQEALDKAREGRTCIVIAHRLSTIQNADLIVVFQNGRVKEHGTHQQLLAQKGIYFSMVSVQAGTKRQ
Test: P-gp transport assay (calcein-AM) in HCT-15 cells
Format: cell-based
Settings: human, P-gp-expressing HCT-15 cells, probe calcein-AM (0.5 μM), 20 μM; normalized to 2.5 μM PSC833 (100%) and DMSO (0%); read-out: Relative inhibition of P-gp
Measure Name: inhibition at 20 μM

>  <Compound>
CCCCCC1Cc2cc(OC)cc(OC)c2C(=O)O1 (stereo not drawn) [Compound 16a]

>  <Measured Target>
P-gp (Homo sapiens, UniProt P08183)

>  <Result>
> 20%

$$$$
>  <Compound>
COc1cc(O)c2c(c1)C[C@@H](CCO[Si](C)(C)C(C)(C)C)OC2=O [(S)-19]

>  <Measured Target>
P-gp (Homo sapiens, UniProt P08183)

>  <Result>
> 20%

$$$$
>  <Compound>
COc1cc(O)c2c(c1)C[C@H](CCO[Si](C)(C)C(C)(C)C)OC2=O [(R)-19]

>  <Measured Target>
P-gp (Homo sapiens, UniProt P08183)

>  <Result>
> 20%

$$$$

###

Tested on: MCF-7/MX cells
Assay: CellTiter-Glo cell viability assay (cytotoxicity), MCF-7/MX
Type: cell-based
Conditions: Homo sapiens, MCF7/MX; 48 h, BCRP-expressing, mean ± SEM
Protocol: The human lung adenocarcinoma cell line A549 was cultured in DMEM medium supplemented with 10% fetal bovine serum (FBS), 100 U/mL penicillin and 100 μg/mL streptomycin. […] Cytotoxic activity of test compounds was analyzed after 48 h using the CellTiter-Glo Luminescent Cell Viability Assay published previously ([Weber et al., 2017]) in 384-well plates with the following cell densities: A549, MCF-7/MX: 2 × 10^3 cells/well; HCT-15: 3 × 10^3 cells/well; H69AR: 5 × 10^3 cells/well. […]

>  <Compound>
COc1cc(O)c2c(c1)CCOC2=O

>  <IC50>
> 100 µM

$$$$
>  <Compound>
COc1cc(O)c2c(c1)C[C@@H](CCO)OC2=O [(S)-19a]

>  <IC50>
89.8 µM

$$$$
>  <Compound>
CCCCCC1Cc2cc(OC)cc(O)c2C(=O)O1 (stereo not drawn)

>  <IC50>
> 100 µM

$$$$
>  <Compound>
COc1cc(O)c2c(c1)C[C@H](C)OC2=O

>  <IC50>
> 100 µM

$$$$
>  <Compound>
COc1cc(O)c2c(c1)C[C@H](CCO[Si](C)(C)C(C)(C)C)OC2=O [(R)-19]

>  <IC50>
28.1 µM

$$$$
>  <Compound>
COc1cc2c(c(OC)c1)C(=O)OCC2 [Compound 14a]

>  <IC50>
> 100 µM

$$$$
>  <Compound>
COc1cc(O)c2c(=O)oc3ccccc3c2c1

>  <IC50>
> 50 µM

$$$$
>  <Compound>
COc1cc(O)c2c(c1)C[C@H](CCO)OC2=O [(R)-19a]

>  <IC50>
> 100 µM

$$$$
>  <Compound>
COc1cc(O)c2c(c1)C[C@@H](C)OC2=O

>  <IC50>
> 100 µM

$$$$
>  <Compound>
COc1cc(O)c2c(c1)C[C@@H](CCO[Si](C)(C)C(C)(C)C)OC2=O [(S)-19]

>  <IC50>
33.5 µM

$$$$
>  <Compound>
O=c1oc2c(O)c(O)cc3c(=O)oc4c(O)c(O)cc1c4c23

>  <IC50>
> 50 µM

$$$$
>  <Compound>
CCCCCC1Cc2cc(OC)cc(OC)c2C(=O)O1 (stereo not drawn) [Compound 16a]

>  <IC50>
10.6 µM

$$$$
